Sourced from patent US11059807B2

// reported pKa for each item listed
assaySummary: TNS fluorescence method, apparent pKa of lipid in formulation
Assay type: physicochemical
reportedConditions: apparent pKa of the formulation, pH at half-maximal TNS fluorescence
Excerpt: The TNS fluorescence method may be used to determine the apparent pKa of the lipid in the formulation. TNS (2-(p-toluidino)-6-naphthalene sulfonic acid) is a negatively charged fluorescent dye whose fluorescence is quenched in the presence of water. […] The increase in the fluorescence can thus be used to estimate the ionization of a cationic lipid when present in different pH environment. Methods of determining pKa using TNS are known in the art, e.g., as described in the Examples. […]
Answer with a number only.

The examples below pair each entry with its known result.
molecule	pKa
CCCCC/C=C\C/C=C\CCCCCCCCC(CCCCCCCC/C=C\C/C=C\CCCCC)N1CCN(C2CCN(C)CC2)CC1 [Compound L-26]	7.1
CCCCC/C=C\C/C=C\CCCCCCCCC(CCCCCCCC/C=C\C/C=C\CCCCC)N1CCN(CC)CC1 [Compound L-24]	5.7
CCCCC/C=C\C/C=C\CCCCCCCCC(CCCCCCCC/C=C\C/C=C\CCCCC)N1CCN(C)CC1 [Compound L-6]	5.6

Query block: For the molecule CCCCC/C=C\C/C=C\CCCCCCCCC(CCCCCCCC/C=C\C/C=C\CCCCC)N1CCN(CCCN(C)C)CC1 [Compound L-22] , what pKa is on record?
Result block: 7

Query block: Consider next the molecule CCCCC/C=C\C/C=C\CCCCCCCCC(CCCCCCCC/C=C\C/C=C\CCCCC)NC(=O)CN1CCN(C)CC1 [Compound L-42] in the same way.
Result block: 6.7

Query block: Consider next the molecule CCCCC/C=C\C/C=C\CCCCCCCCC(CCCCCCCC/C=C\C/C=C\CCCCC)N1CCCN(C)CC1 [Compound L-5] in the same way.
Result block: 6.4

---

// reported pKa for each item listed
assaySummary: TNS fluorescence method, apparent pKa of lipid in formulation
Type: physicochemical
reportedConditions: apparent pKa of the formulation, pH at half-maximal TNS fluorescence
Answer with a number only.

The examples below pair each entry with its known result.
compound	resultValue
CCCCC/C=C\C/C=C\CCCCCCCCC(CCCCCCCC/C=C\C/C=C\CCCCC)NC(=O)CN(C)C	5.8
CCCCC/C=C\C/C=C\CCCCCCCCC(CCCCCCCC/C=C\C/C=C\CCCCC)N1CCN(CCN(C)C)CC1	6.7

Query block: For the compound CCCCC/C=C\C/C=C\CCCCCCCCC(CCCCCCCC/C=C\C/C=C\CCCCC)N1CCN(CCn2ccnc2)CC1 , what pKa is on record?
Result block: 6.5

Query block: Consider next the compound CCCCC/C=C\C/C=C\CCCCCCCCC(CCCCCCCC/C=C\C/C=C\CCCCC)NCCc1c[nH]cn1 in the same way.
Result block: 6.7

Query block: Consider next the compound CCCCC/C=C\C/C=C\CCCCCCCCC(CCCCCCCC/C=C\C/C=C\CCCCC)NC(=O)CCN(C)C in the same way.
Result block: 6.9

---

// reported pKa for each item listed
assaySummary: TNS fluorescence method, apparent pKa of lipid in formulation
Type: physicochemical
reportedConditions: apparent pKa of the formulation, pH at half-maximal TNS fluorescence
Answer with a number only.

molecule	observationType	resultValue
CCCCC/C=C\C/C=C\CCCCCCCCC(CCCCCCCC/C=C\C/C=C\CCCCC)NC(=O)CCc1c[nH]cn1	pKa	6.5
CCCCC/C=C\C/C=C\CCCCCCCCC(CCCCCCCC/C=C\C/C=C\CCCCC)NC(C)CCCN(CC)CC (stereo not shown)	pKa	7.1
CCCCC/C=C\C/C=C\CCCCCCCCC(CCCCCCCC/C=C\C/C=C\CCCCC)NCCCN(C)C	pKa	7.6

Next molecule, pKa to be filled in.
Query block: For the molecule CCCCC/C=C\C/C=C\CCCCCCCCC(CCCCCCCC/C=C\C/C=C\CCCCC)NC(=O)CCCN(C)C , what pKa is on record?
Result block: 7
